System: Candida albicans
assayComment: Minimum inhibitory concentration to inhibit 90 to 100% visible growth of Candida albicans
Assay type: functional
metric: MIC (µg/mL)

>  <molecule>
CSc1ccc(CC(=O)OCCC23CC4C(CC[C@H]4C)C4(C=O)CC2C=C(C(C)C)C43C(=O)O)cc1 (some centres undefined)

>  <studyTarget>
Candida albicans

>  <unitLabel>
µg/mL

>  <MIC>
0.5

$$$$

P = CC(C)C1=CC2CC3(C=O)[C@@H]4CC[C@@H](C)[C@H]4CC2(C(=O)CCC2CCCCC2)[C@]13C(=O)O
Q = CC(C)C1=CC2CC3(C=O)C4CC[C@@H](C)C4CC2(CCOC(=O)c2ccc(Cl)nc2)C13C(=O)O (some centres undefined)
R = CC(C)C1=CC2CC3(C=O)C4CC[C@@H](C)C4CC2(CCOC(=O)Cc2ccco2)C13C(=O)O (some centres undefined)
Ask: Hey, quick one: sort these by MIC, low to high? Form entry: ranked labels (order as requested).
Result: P, R, Q

---

Test system: Candida albicans
assayComment: Minimum inhibitory concentration to inhibit 90 to 100% visible growth of Candida albicans
Type: functional
metric: MIC (µg/mL)

Would you please look over these solved cases?
>  <compound>
CC(C)C1=CC2CC3(C=O)[C@@H]4CC[C@@H](C)[C@H]4CC2(C(O)C#CCC2CCCC2)[C@]13C(=O)O (stereo partly specified)

>  <MIC [µg/mL]>
1

$$$$
>  <compound>
CC(C)C1=CC2CC3(C=O)[C@@H]4CC[C@@H](C)[C@H]4CC2(C(O)CC2CCCCC2)[C@]13C(=O)O (stereo partly specified)

>  <MIC [µg/mL]>
2

$$$$
>  <compound>
CC(C)C1=CC2CC3(C=O)C4CC[C@@H](C)C4CC2(CCOC(=O)c2ccc4c(c2)OCO4)C13C(=O)O (stereo partly specified)

>  <MIC [µg/mL]>
2

$$$$
>  <compound>
CC(C)C1=CC2CC3(C=O)C4CC[C@@H](C)C4CC2(CCOC(=O)c2ccc(Cl)cc2)C13C(=O)O (stereo partly specified)

>  <MIC [µg/mL]>
4

$$$$
>  <compound>
CC(C)C1=CC2CC3(C=O)C4CC[C@@H](C)C4CC2(CCOC(=O)Cc2ccc(Br)o2)C13C(=O)O (stereo partly specified)

>  <MIC [µg/mL]>
2

$$$$
>  <compound>
CCCCCCC(O)C12C[C@@H]3[C@H](C)CC[C@H]3C3(C=O)CC1C=C(C(C)C)[C@@]23C(=O)O (stereo partly specified)

>  <MIC [µg/mL]>
4

$$$$
>  <compound>
CC(C)CCOCCC12CC3C(CC[C@H]3C)C3(C=O)CC1C=C(C(C)C)C32C(=O)O (stereo partly specified)

>  <MIC [µg/mL]>
2

$$$$

P = CC(C)C1=CC2CC3(C=O)C4CC[C@@H](C)C4CC2(CCOC(=O)CCNC(=O)OC(C)(C)C)C13C(=O)O (stereo partly specified)
Q = CC(C)C1=CC2CC3(C=O)[C@@H]4CC[C@@H](C)[C@H]4CC2(C(O)CCC2CCCCC2)[C@]13C(=O)O (stereo partly specified)
Ask: For the two items P and Q , which reports the higher MIC value? Let me know the label of the one you choose.
Result: P

---

A collection of compounds and their measured CC50
System: HEp-2
assayComment: In vitro cytotoxic concentration against Hep2 cells.
Assay type: functional
conditionsUsed: Homo sapiens
Quick reminder: number only, in µg/mL, skip the unit.

compound CC(C)C1=CC2CC3(C=O)[C@@H]4CC[C@@H](C)[C@H]4CC2(C(=O)C#CCC2CCCCC2)[C@]13C(=O)O , CC50 observed: 1.4

Form field CC50, entry CC(C)C1=CC2CC3(C=O)[C@@H]4CC[C@@H](C)[C@H]4CC2(C(O)CCC2CCCCC2)[C@]13C(=O)O (some centres not stated) : 1.5

CC50 measured on CC(C)C1=CC2CC3(C=O)[C@@H]4CC[C@@H](C)[C@H]4CC2(C(O)C#CCC2CCCC2)[C@]13C(=O)O (some centres not stated) = 14.2

CC(C)CCCCC(=O)C12C[C@@H]3[C@H](C)CC[C@H]3C3(C=O)CC1C=C(C(C)C)[C@@]23C(=O)O yielded CC50 of 2.5

Value of CC50 reported for the compound CCCCCCC(=O)C12C[C@@H]3[C@H](C)CC[C@H]3C3(C=O)CC1C=C(C(C)C)[C@@]23C(=O)O is 1.5

Consider CCCCC#CC(O)C12C[C@@H]3[C@H](C)CC[C@H]3C3(C=O)CC1C=C(C(C)C)[C@@]23C(=O)O (some centres not stated) . Its measured CC50 is 18.3

Record summary for CC(C)CCCCC(O)C12C[C@@H]3[C@H](C)CC[C@H]3C3(C=O)CC1C=C(C(C)C)[C@@]23C(=O)O (some centres not stated) : reported CC50 = 1.2

Values from ChEMBL document CHEMBL1136564
